Reported Ki values are given for each entry in this list.
molecular target: native CB1 receptors (Rattus norvegicus, UniProt P20272); test: CB1 receptor rat binding assay ([3H]SR141716A, rat brain membranes); conditions: rat brain membranes, [3H]SR141716A; read-out: Binding rat pKi (converted)
Sequence (P20272 whole entry): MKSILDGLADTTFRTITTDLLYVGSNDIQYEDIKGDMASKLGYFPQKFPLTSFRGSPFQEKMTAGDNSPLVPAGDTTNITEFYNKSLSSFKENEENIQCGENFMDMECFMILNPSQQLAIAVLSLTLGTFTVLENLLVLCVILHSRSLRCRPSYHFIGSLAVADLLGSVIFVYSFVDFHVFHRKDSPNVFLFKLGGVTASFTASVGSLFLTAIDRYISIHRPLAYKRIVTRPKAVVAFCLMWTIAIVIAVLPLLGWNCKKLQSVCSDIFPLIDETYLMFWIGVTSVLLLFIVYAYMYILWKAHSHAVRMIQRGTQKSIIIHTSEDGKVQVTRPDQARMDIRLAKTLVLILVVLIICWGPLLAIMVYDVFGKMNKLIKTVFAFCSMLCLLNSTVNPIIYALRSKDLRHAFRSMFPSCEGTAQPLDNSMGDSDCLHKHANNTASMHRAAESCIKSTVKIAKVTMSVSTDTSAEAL
Give the value, in units of nM, as a plain number.

>>> numeric_value("O=C(NCc1cccnc1)c1ccc2c(c1)N=C(c1cccc(F)c1)c1ccccc1S2 [drawing 1221]")
15.8

// sample CCCCNC(=O)c1ccc2c(c1)N=C(c1ccc(Cl)s1)c1ccc(Cl)cc1S2 [drawing 1480] , its Ki was 10

// sample CC(NC(=O)c1ccc2c(c1)N=C(C1CCCCC1)c1ccccc1S2)c1ccccc1 (stereo not drawn) [drawing 1431] , its Ki was 6.31

// sample Cc1csc(CNC(=O)c2ccc3c(c2)N=C(c2ccc(Cl)s2)c2ccccc2S3)c1 [drawing 1232] , its Ki was 0.794

// sample O=C(NCCCC(F)(F)F)c1ccc2c(c1)N=C(c1ccsc1)c1ccccc1S2 [drawing 1233] , its Ki was 0.794

// sample NS(=O)(=O)c1ccc(CNC(=O)c2ccc3c(c2)N=C(c2ccc(Cl)cc2)c2ccccc2S3)cc1 [drawing 1486] , its Ki was 63.1

// sample CCCCNC(=O)c1ccc2c(c1)N=C(N1CCCCC1)c1ccccc1S2 [drawing 1325] , its Ki was 25.1

// sample COCCNC(=O)c1ccc2c(c1)N=C(c1cccc(F)c1)c1ccccc1S2 [drawing 1468] , its Ki was 50.1

// sample CCOCCNC(=O)c1ccc2c(c1)N=C(c1ccc(Br)cc1)c1ccccc1S2 [drawing 1404] , its Ki was 39.8

// sample CCCCNC(=O)c1ccc2c(c1)N=C(c1ccc(F)cc1)c1ccccc1S2 [drawing 1238] , its Ki was 15.8

// sample O=C(NCCC(F)(F)F)c1ccc2c(c1)N=C(c1ccc(Cl)s1)c1ccccc1S2 [drawing 1273] , its Ki was 2

// sample O=C(NCc1cccc(Cl)c1)c1ccc2c(c1)N=C(N1CCC(F)CC1)c1ccccc1S2 [drawing 1523] , its Ki was 10

// sample C[C@@H]1CCC[C@H](C)N1NC(=O)c1ccc2c(c1)N=C(c1ccc(F)cc1)c1ccccc1S2 [drawing 1356] , its Ki was 31.6

// sample O=C(NC1CCCCC1)c1ccc2c(c1)N=C(c1ccccc1F)c1ccccc1S2 [drawing 1539] , its Ki was 12.6

// sample O=C(NCCC(F)(F)F)c1ccc2c(c1)N=C(c1cccc(Cl)c1)c1ccccc1S2 [drawing 1250] , its Ki was 1

// sample CCOC(=O)N1CCC(NC(=O)c2ccc3c(c2)N=C(C2CCCCC2)c2ccccc2S3)CC1 [drawing 1517] , its Ki was 10

// sample C[C@@H]1CCC[C@H](C)N1NC(=O)c1ccc2c(c1)N=C(c1ccc(Cl)c(Cl)c1)c1ccccc1S2 [drawing 1393] , its Ki was 5.01

// sample CC(C)CCNC(=O)c1ccc2c(c1)N=C(c1ccccc1Cl)c1ccccc1S2 [drawing 1188] , its Ki was 12.6

----------
target: CB1 (mutant) (Homo sapiens); test: R-SAT functional receptor assay, CB1 (mutant, truncated after amino acid 417); format: cell-based; settings: Appendix A; R-SAT CB1; receptor form not stated; relative to SR141716 (100%); read-out: % Inhibition
Sequence (P21554 1-417, change not shown): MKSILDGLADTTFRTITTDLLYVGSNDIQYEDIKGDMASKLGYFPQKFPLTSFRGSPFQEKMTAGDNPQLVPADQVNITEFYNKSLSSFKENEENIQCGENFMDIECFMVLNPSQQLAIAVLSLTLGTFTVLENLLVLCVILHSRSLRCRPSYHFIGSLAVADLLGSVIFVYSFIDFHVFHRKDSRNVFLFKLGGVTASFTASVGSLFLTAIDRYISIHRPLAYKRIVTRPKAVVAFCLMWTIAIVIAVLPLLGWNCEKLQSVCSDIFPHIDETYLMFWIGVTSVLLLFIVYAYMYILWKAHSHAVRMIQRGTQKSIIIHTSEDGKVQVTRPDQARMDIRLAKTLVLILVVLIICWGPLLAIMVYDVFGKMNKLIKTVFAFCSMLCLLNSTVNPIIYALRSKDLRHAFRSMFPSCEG
Reported Emax values are given for each entry in this list.
Give the value, in units of %, as a plain number.

Consider the following illustrative entries.
>>> numeric_value("O=C(NCc1ccncc1)c1ccc2c(c1)N=C(NCc1ccc(Cl)cc1)c1ccccc1S2")
56
>>> numeric_value("O=C(NC1CCCCC1)c1ccc2c(c1)N=C(c1ccccc1Cl)c1ccccc1S2")
67
>>> numeric_value("O=C(NCc1ccncc1)c1ccc2c(c1)N=C(c1ccc(Br)cc1)c1ccccc1S2 [drawing 586]")
84
>>> numeric_value("O=C(c1ccc2c(c1)N=C(c1cccc(Cl)c1)c1ccccc1S2)N1CCCCC1")
80
>>> numeric_value("Cc1ccsc1C1=Nc2cc(C(=O)NCC(C)C)ccc2Sc2ccccc21 [drawing 757]")
88

// sample COc1ccc(C2=Nc3cc(C(=O)NCC(C)C)ccc3Sc3ccccc32)cc1 [drawing 835] , its Emax was 118

// sample `O=C(NN1CCCC1)c1ccc2c(c1)N=C(c1ccc(F)cc1)c1ccccc1S2` , its Emax was 92

// sample O=C(NCCc1ccccc1)c1ccc2c(c1)N=C(c1ccc(Cl)cc1)c1ccccc1S2 [drawing 743] , its Emax was 110

// sample `O=C(NN1CCOCC1)c1ccc2c(c1)N=C(c1cccc(F)c1)c1ccccc1S2` , its Emax was 63
